Molecular target: isolated recombinant JAK1 kinase domain (Homo sapiens (Human))
Sequence (P23458 875-1153): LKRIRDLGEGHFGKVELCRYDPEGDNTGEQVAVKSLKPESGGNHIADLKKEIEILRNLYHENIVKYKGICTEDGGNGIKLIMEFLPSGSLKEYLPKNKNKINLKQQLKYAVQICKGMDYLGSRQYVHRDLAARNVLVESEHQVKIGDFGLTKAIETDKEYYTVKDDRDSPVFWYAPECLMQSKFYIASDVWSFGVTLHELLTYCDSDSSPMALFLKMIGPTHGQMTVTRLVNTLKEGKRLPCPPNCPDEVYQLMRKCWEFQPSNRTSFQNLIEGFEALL
Assay: JAK1 enzyme assay (Caliper LabChip, peptide phosphorylation)
Format: biochemical
Details: isolated recombinant JAK1 kinase domain, 25 μM ATP
VALUE KIND: Ki (nM)

Known Ki results, listed for orientation:
# MOLECULE SMILES, U, Ki
measured = [
    ("O=C1C=C(CN2CCN(C(=O)Cn3cc(NC(=O)c4cnn5cccnc45)c(-c4cc(Cl)ccc4OC(F)F)n3)CC2)CO1", "nM", 0.46),
    ("O=C(Nc1cn(CC(=O)N2CCC(CO)CC2)nc1-c1cc(Cl)ccc1OC(F)F)c1cnn2cccnc12", "nM", 0.34),
]

P. NCCn1cc(NC(=O)c2c(N)nn3cccnc23)c(-c2cc(Cl)ccc2OC(F)F)n1
Q. O=C(Nc1cn(CC(=O)N2CC=CCC2)nc1-c1cc(Cl)ccc1OC(F)F)c1cnn2cccnc12
R. O=C(Nc1cn(C2CCN(CCCN3CCOCC3)CC2)nc1-c1cc(Cl)ccc1OC(F)F)c1cnn2cccnc12
Prompt: Parameters: sort_field (Ki), sort_dir (desc). Note for the reader: the ranking is given by listing the labels in the order requested.
Response: R, P, Q
(R: 2.12 nM, P: 0.49 nM, Q: 0.15 nM)

1. CN(C1CCN(C(=O)Cn2cc(NC(=O)c3cnn4cccnc34)c(-c3cc(Cl)ccc3OC(F)F)n2)CC1)[C@@H]1CCOC1
2. O=C(Nc1cn(CC(=O)N2CCN(CCCO)CC2)nc1-c1cc(Cl)ccc1OC(F)F)c1cnn2cccnc12
3. CN1CC2(C1)CN(C(=O)Cn1cc(NC(=O)c3cnn4cccnc34)c(-c3cc(Cl)ccc3OC(F)F)n1)C2
Prompt: Parameters: sort_field (Ki), sort_dir (desc). Note for the reader: the ranking is given by listing the labels in the order requested.
Response: 3, 2, 1

a. CN1CC[C@@H](n2cc(NC(=O)c3c(N)nn4cccnc34)c(-c3cc(Cl)ccc3OC(F)F)n2)C1
b. O=C(Nc1cn(CCN[C@H]2CCOC2)nc1-c1cc(Cl)ccc1OC(F)F)c1cnn2cccnc12
Prompt: # compare Ki for a vs b ; return the one with the smaller value # answer = label of selected item
Response: a
(a: 0.49 nM, b: 0.9 nM)
